- testedOn: GABA-A receptor; alpha-5/beta-3/gamma-2 (Homo sapiens) (UniProt P18507+P28472+P31644)
- assayProtocol: Efficacy at GABAA alpha-5-beta-3-gamma-2 receptor expressed in mouse fibroblast L(tk-) cells measured at 300 nM derived from at least three plates/day screened over a minimum of 2 days
- Type: functional, cell-based
Note to self: use 1 (yes) only for Efficacy readings below -10; a reading exactly at -10 still gets 0 (no).

Here are 3 compounds together with their reported answers.
Brc1cccc(-c2cnnc(NCc3ccccc3)c2)c1 = 0 (no)
CCNc1cc(-c2cccc(Br)c2)cnn1 = 1 (yes)
COC(=O)c1cccc(-c2cnnc(-c3ccccc3)c2)c1 = 1 (yes)

query: Record `N#Cc1cccc(-c2cnnc(-c3ccccc3)c2)c1` : is its Efficacy strictly below -10?
result: 1 (yes)

query: For `COc1cc(-c2cccc(Br)c2)cnn1` , is the recorded Efficacy below the cut-off of -10?
result: 1 (yes)

query: Confirm or reject: Efficacy of `Cn1ncnc1COc1cccc(-c2cnnc(-c3ccccc3)c2)c1` lies strictly below -10
result: 0 (no)

query: Lab log: compare recorded Efficacy with -10; is it strictly lower for `N#Cc1cccc(-c2cnnc(-c3cccc(F)c3)c2)c1` ?
result: 0 (no)

query: is_below(Efficacy, -10) for `CCNc1cc(-c2cccc(C#N)c2)cnn1` ?
result: 1 (yes)

query: Consider the compound `CCOc1cc(-c2cccc(Br)c2)cnn1` . Is its Efficacy strictly less than -10?
result: 0 (no)

query: Would you kindly verify if Efficacy of `CN(C)c1cc(-c2cccc(Br)c2)cnn1` is strictly less than -10?
result: 1 (yes)

query: Given the entry `CCOc1cc(-c2cccc(C#N)c2)cnn1` , would its reported Efficacy be below -10?
result: 0 (no)

query: Strictly below -10 in Efficacy? `N#Cc1cccc(-c2cnnc(-c3ccccc3F)c2)c1`
result: 1 (yes)

====

- testedOn: GABA-A receptor; alpha-3/beta-3/gamma-2 (Homo sapiens, UniProt P18507+P28472+P34903)
- Sequence (P18507 whole entry): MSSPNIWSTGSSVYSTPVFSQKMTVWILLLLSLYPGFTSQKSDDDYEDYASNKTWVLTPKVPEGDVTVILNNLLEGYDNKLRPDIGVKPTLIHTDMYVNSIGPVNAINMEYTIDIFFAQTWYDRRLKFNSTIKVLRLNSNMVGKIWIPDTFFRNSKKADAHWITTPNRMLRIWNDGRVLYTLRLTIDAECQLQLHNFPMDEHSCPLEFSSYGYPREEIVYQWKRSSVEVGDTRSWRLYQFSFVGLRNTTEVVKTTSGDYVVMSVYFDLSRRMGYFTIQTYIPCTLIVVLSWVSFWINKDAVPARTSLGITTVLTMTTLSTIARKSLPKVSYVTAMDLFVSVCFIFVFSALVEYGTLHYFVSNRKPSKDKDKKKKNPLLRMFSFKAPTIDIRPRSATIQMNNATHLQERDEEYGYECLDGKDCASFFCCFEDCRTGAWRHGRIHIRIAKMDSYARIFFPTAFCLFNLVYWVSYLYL
- Sequence (P28472 whole entry): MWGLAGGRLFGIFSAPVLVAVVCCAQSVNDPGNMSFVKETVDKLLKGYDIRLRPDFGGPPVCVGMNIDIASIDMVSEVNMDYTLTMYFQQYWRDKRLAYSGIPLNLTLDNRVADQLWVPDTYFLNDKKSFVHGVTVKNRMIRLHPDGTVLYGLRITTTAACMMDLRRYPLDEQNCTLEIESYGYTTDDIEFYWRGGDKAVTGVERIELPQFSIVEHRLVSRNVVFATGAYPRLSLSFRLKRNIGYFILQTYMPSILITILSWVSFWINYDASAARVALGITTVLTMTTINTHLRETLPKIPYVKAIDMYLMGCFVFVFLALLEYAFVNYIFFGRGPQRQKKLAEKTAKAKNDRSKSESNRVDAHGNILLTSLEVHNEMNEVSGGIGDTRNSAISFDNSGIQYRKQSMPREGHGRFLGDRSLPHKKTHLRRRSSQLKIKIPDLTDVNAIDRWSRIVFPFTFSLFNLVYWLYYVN
- Sequence (P34903 whole entry): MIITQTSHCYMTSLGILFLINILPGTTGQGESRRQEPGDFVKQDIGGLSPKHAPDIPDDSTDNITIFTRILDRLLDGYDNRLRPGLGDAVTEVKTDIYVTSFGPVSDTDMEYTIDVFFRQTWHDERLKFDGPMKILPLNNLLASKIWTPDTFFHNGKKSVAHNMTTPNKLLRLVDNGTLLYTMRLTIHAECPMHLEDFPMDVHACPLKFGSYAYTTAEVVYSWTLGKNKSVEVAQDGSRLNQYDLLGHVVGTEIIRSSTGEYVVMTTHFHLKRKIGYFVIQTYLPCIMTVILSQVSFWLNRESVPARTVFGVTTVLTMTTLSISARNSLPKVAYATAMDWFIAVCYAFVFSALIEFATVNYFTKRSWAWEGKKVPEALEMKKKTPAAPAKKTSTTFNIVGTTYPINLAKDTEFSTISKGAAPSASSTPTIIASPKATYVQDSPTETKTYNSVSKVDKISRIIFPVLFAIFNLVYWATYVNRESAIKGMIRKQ
- assayProtocol: Displacement of [3H]-Ro- 15-1788 binding from human recombinant Gamma-aminobutyric acid A receptor alpha-3-beta-3-gamma-2 expressed in mouse fibroblast L(tk-) cells (30 min at 24 degrees C, pH 7.4)
pKi: −log10 of the molar value.
Classification field: TRUE = pKi at or over 7; FALSE = pKi under 7.

// below: answered compounds
N#Cc1cccc(-c2cnnc(-c3ccc(F)cc3F)c2)c1 = TRUE
CC(C)Oc1cc(-c2cccc(Br)c2)cnn1 = TRUE
Brc1cccc(-c2cnnc(OCc3ccccc3)c2)c1 = FALSE
N#Cc1cccc(-c2cnnc(-c3ccc(F)c(F)c3)c2)c1 = TRUE

Please examine the following record next.
query: For this compound, is measured pKi 7 or higher? `c1ccc(-c2cc(-c3cccc(-n4cnnc4)c3)cnn2)cc1`
result: TRUE

====

- testedOn: GABA-A receptor; alpha-3/beta-3/gamma-2 (Homo sapiens) (UniProt P18507+P28472+P34903)
- assayProtocol: Efficacy at GABAA alpha-3-beta-3-gamma-2 receptor expressed in mouse fibroblast L(tk-) cells measured at 300 nM derived from at least three plates/day screened over a minimum of 2 days
- Format: functional, cell-based
Below, each of the compounds is paired with its reported Efficacy value.
Form field (numeric): enter value without unit.

Worked examples, 4 compounds total:
CC(C)Oc1cc(-c2cccc(Br)c2)cnn1 = 28
N#Cc1cccc(-c2cnnc(-c3cccc(F)c3)c2)c1 = 3.6
CC(C)Nc1cc(-c2cccc(Br)c2)cnn1 = 25
CCNc1cc(-c2cccc(Br)c2)cnn1 = 2

query: // lookup Efficacy for `N#Cc1cccc(-c2cnnc(OCc3ccccc3)c2)c1`
result: 60
